Target: human CXCR4 (human, UniProt P61073 1-352)
Sequence (P61073 whole entry): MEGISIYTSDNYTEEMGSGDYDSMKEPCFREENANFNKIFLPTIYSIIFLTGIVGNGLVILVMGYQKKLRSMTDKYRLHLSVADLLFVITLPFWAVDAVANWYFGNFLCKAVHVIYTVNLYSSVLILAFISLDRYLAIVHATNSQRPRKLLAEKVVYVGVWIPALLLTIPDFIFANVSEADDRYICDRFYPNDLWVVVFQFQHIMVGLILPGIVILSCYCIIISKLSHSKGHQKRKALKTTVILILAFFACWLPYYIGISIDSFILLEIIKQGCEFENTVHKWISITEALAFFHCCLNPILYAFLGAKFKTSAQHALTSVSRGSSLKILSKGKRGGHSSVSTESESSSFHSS
Assay: cell-based or functional assay
[ ]: non-standard residue; d: D form. 2Nal = N[C@@H](Cc1ccc2ccccc2c1)C(=O)O; Cit = NC(=O)NCCC[C@H](N)C(=O)O
experimental_readout: IC50 (nM) Ca2+ assay (method 1)
Give your result in nM as a bare value.

# lookup: IC50 (nM) Ca2+ assay (method 1) of cyclo(YR[Cit]FRVPRR[2Nal]VY[Cit]K[dP]P) (SMILES CC(C)[C@@H]1NC(=O)[C@H](Cc2ccc3ccccc3c2)NC(=O)[C@H](CCCNC(=N)N)NC(=O)[C@H](CCCNC(=N)N)NC(=O)[C@@H]2CCCN2C(=O)[C@H](C(C)C)NC(=O)[C@H](CCCNC(=N)N)NC(=O)[C@H](Cc2ccccc2)NC(=O)[C@H](CCCNC(N)=O)NC(=O)[C@H](CCCNC(=N)N)NC(=O)[C@H](Cc2ccc(O)cc2)NC(=O)[C@@H]2CCCN2C(=O)[C@H]2CCCN2C(=O)[C@H](CCCCN)NC(=O)[C@H](CCCNC(N)=O)NC(=O)[C@H](Cc2ccc(O)cc2)NC1=O) [Example 22]
300
